Values from patent US9586951B2

Target: ATM (Homo sapiens)
Construct: detecting phosphorylation of Chk2 in a human non-small cell lung cancer cell line NCI-H460 (ATCC company); host or cells: NCI-H460 human non-small cell lung cancer cells
Sequence (Q13315 whole entry): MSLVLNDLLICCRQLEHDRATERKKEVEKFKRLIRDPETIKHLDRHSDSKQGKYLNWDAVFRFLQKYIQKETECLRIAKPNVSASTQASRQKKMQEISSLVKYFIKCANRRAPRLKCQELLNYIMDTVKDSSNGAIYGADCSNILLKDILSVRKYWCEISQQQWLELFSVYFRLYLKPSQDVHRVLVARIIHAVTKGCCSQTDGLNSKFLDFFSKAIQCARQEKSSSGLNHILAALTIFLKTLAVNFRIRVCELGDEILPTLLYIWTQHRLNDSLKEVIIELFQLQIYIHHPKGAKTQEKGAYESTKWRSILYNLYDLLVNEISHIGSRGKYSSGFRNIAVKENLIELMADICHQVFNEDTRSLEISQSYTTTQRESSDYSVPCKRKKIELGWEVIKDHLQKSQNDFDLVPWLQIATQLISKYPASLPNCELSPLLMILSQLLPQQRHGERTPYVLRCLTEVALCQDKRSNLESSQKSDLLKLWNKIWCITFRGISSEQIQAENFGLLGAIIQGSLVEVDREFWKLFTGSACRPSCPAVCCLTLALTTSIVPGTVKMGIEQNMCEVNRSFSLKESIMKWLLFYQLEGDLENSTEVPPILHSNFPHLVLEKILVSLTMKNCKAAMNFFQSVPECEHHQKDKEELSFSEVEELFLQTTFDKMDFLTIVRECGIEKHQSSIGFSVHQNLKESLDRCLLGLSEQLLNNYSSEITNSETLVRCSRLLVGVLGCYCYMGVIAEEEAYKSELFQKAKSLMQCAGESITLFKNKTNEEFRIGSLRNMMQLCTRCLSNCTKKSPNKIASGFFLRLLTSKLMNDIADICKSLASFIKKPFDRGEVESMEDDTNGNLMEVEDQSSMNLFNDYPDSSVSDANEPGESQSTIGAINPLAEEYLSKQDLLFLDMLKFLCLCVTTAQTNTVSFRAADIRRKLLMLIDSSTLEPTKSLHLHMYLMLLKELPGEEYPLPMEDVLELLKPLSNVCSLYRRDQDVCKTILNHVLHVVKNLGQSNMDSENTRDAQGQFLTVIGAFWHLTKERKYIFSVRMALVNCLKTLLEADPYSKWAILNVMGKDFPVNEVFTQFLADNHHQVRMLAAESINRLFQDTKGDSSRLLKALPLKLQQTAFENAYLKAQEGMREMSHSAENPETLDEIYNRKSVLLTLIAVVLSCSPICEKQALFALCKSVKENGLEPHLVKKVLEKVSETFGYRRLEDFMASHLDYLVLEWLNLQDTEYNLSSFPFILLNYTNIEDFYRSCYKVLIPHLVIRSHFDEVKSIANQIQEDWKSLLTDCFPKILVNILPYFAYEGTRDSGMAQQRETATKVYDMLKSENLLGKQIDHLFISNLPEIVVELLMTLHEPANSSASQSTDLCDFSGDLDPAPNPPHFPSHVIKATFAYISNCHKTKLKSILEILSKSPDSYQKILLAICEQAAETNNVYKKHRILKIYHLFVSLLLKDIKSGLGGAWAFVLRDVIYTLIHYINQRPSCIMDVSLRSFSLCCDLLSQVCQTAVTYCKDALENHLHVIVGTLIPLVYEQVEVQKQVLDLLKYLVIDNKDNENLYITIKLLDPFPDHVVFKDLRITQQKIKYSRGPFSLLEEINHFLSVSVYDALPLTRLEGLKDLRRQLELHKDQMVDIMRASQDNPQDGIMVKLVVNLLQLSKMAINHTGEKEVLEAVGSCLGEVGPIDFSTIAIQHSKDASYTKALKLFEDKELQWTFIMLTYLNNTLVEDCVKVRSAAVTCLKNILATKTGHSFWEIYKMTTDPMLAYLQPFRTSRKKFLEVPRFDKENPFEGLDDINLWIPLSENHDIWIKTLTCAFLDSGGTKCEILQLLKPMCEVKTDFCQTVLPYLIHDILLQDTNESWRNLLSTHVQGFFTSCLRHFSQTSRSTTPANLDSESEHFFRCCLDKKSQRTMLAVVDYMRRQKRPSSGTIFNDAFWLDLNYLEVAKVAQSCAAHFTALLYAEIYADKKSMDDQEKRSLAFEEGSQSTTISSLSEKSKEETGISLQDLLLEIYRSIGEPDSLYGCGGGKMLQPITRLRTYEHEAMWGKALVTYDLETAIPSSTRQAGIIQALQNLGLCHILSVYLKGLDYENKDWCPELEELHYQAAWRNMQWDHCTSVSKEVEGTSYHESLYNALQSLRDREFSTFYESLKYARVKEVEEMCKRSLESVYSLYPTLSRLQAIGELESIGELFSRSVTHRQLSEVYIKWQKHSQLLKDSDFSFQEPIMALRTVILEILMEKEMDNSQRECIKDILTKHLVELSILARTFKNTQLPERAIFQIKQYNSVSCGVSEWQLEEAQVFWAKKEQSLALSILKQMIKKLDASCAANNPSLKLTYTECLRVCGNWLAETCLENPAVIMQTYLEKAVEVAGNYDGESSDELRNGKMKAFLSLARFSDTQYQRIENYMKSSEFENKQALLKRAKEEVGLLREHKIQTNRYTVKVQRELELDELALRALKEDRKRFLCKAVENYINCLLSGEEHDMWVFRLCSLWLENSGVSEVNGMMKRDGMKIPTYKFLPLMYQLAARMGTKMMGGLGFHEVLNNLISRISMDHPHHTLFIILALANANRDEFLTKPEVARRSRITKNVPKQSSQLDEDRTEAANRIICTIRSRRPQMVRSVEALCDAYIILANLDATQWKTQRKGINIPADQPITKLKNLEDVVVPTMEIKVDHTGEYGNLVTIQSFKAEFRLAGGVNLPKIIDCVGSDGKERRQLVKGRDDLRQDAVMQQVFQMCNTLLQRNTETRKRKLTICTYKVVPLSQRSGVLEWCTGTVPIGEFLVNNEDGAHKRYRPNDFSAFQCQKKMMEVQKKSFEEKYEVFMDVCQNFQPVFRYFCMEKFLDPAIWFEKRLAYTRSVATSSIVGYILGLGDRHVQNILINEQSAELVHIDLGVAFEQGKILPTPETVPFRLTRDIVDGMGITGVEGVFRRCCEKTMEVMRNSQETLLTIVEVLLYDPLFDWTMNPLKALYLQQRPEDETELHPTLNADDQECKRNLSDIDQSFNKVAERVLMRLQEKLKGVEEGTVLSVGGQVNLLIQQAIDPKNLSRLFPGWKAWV
Assay: ATM inhibition test (phosphorylation of Chk2 generated by ionizing radiation, AlphaScreen SureFire)
Type: cell-based
Conditions: phosphorylated Chk2 in NCI-H460 cells, ionizing radiation 8Gy, 1 hour after test compound treatment; read-out: ATM inhibitory activity
Property Name: IC50

> print(dat)
                                    compound                 tgt  property.name  recorded.measurement
 1  O=c1cc(N2CCOCC2)cc(-c2cccc3c2Oc2ccc(NC4CCN(Cc5cccnc5)CC4)cc2C3)[nH]1  ATM (Homo sapiens)           IC50         100 to 500 nM
 2  CN(C)CC(=O)Nc1ccc2c(c1)Sc1cccc(-c3cc(N4CCOCC4)cc(=O)[nH]3)c1S2  ATM (Homo sapiens)           IC50        500 to 2000 nM
 3  CCC(C)C(Nc1ccc2c(c1)Sc1cccc(-c3cc(N4CCOCC4)cc(=O)[nH]3)c1S2)c1ccc(C)cn1 (stereo not shown)  ATM (Homo sapiens)           IC50         100 to 500 nM
 4  CCNc1cccc(CNc2ccc3c(c2)Cc2cccc(-c4cc(N5CCOCC5)cc(=O)[nH]4)c2O3)n1  ATM (Homo sapiens)           IC50         100 to 500 nM
 5  CC(Nc1ccc2c(c1)Sc1cccc(-c3cc(N4CCOCC4)cc(=O)[nH]3)c1S2)c1ccnc(Cl)n1 (stereo not shown)  ATM (Homo sapiens)           IC50         100 to 500 nM
 6  O=c1cc(N2CCOCC2)cc(-c2cccc3c2Oc2ccc(NCc4ccc(Cl)nc4)cc2C3)[nH]1  ATM (Homo sapiens)           IC50         100 to 500 nM
 7  Cc1ccc(C2(Nc3ccc4c(c3)Sc3cccc(-c5cc(N6CCOCC6)cc(=O)[nH]5)c3S4)CCC2)nc1  ATM (Homo sapiens)           IC50         100 to 500 nM
 8  Cc1ccc(C(CCN2CCOCC2)Nc2ccc3c(c2)Sc2cccc(-c4cc(N5CCOCC5)cc(=O)[nH]4)c2S3)nc1 (single isomer, unassigned)  ATM (Homo sapiens)           IC50              < 100 nM
 9  CNc1ncc(CNc2ccc3c(c2)Sc2cccc(-c4cc(N5CCOCC5)cc(=O)[nH]4)c2S3)cn1  ATM (Homo sapiens)           IC50              < 100 nM
10  O=c1cc(N2CCOCC2)cc(-c2cccc3c2Oc2ccc(NCc4ccc(F)nc4)cc2S3)[nH]1  ATM (Homo sapiens)           IC50              < 100 nM
11  O=c1cc(N2CCOCC2)cc(-c2cccc3c2Sc2ccc(NC(CF)CN4CCCCC4)cc2S3)[nH]1 (stereo not shown)  ATM (Homo sapiens)           IC50              < 100 nM
12  Cc1cccc(C(CN)Nc2ccc3c(c2)Sc2cccc(-c4cc(N5CCOCC5)cc(=O)[nH]4)c2S3)n1 (stereo not shown)  ATM (Homo sapiens)           IC50         100 to 500 nM
13  CC(C)(CN1CCOCC1)Nc1ccc2c(c1)Sc1cccc(-c3cc(N4CCOCC4)cc(=O)[nH]3)c1S2  ATM (Homo sapiens)           IC50         100 to 500 nM
14  Cc1ccsc1CNc1ccc2c(c1)Sc1cccc(-c3cc(N4CCOCC4)cc(=O)[nH]3)c1S2  ATM (Homo sapiens)           IC50        500 to 2000 nM
15  O=c1cc(N2CCOCC2)cc(-c2cc(F)cc3c2Oc2ccc(NCc4cc(C5CC5)ccn4)cc2C3)[nH]1  ATM (Homo sapiens)           IC50         100 to 500 nM
16  CC(CN1C[C@@H](C)O[C@@H](C)C1)Nc1ccc2c(c1)Sc1cccc(-c3cc(N4CCOCC4)cc(=O)[nH]3)c1S2 (stereo partly shown)  ATM (Homo sapiens)           IC50              < 100 nM
